system: SK-MEL-28 melanoma; assay: NCI-60 one-dose screen, 48 h; conditions: 10 µM unless noted
Compounds without any hit were thinned out: in the full panel of roughly 83,000, 20% have a hit. Activity calls are given as the source filed them. How the source made its calls: active means growth percent below 10; inactive means the rest.
Hello, when you answer, please use one of the following outcomes: 1.0 = active, 0.0 = inactive

* CC(=O)N1N=C(c2ccc(C(F)(F)F)cc2)CC1c1ccc2c(c1)OCO2 (stereo not given) | 0.0

Dear colleague, could you share the recorded outcome for NC(=O)c1cc(Br)cc(Br)c1NS(=O)(=O)c1ccccc1 when you have a moment?
0.0

Also check O=C1N=C(N2CCOCC2)S/C1=C\c1cn(-c2ccccc2)nc1-c1ccccc1
0.0

Next record, please: O=C(CN1CCN(c2ccc(Cl)cc2)CC1)N1CCN(c2nnc(-c3ccc(Cl)cc3)c(-c3ccc(Cl)cc3)n2)CC1
0.0

# iterate: CCN(CC)CCSc1ncnc2c1cnn2-c1ccc(S(N)(=O)=O)cc1
0.0

Then what about the molecule CN1CCC[C@@H]1CCO[C@](C)(c1ccccc1)c1ccc(Cl)cc1 ?
0.0

Next: Nc1ncnc2c1CN(Cc1ccccc1)CC2
0.0

Repeat with Cc1cc(C(=O)Nc2ccc3cc(CN4CCOCC4)ccc3n2)c(C)n1-c1ccccc1
0.0

Here is the next molecule: COc1ccc(-n2cnc3cc(C(=O)N4CCCCC4)ccc32)cc1
0.0

Cited source: PubChem BioAssay (NCI)
